Task for the reader: assign each of the following binders its reported koff.
assayed system: T1, recombinant human TIGIT (human, UniProt Q495A1 22-141, limits assumed)
T1 construct: recombinant human TIGIT used in Carterra SPR; also called hTIGIT
T1 sequence (looked up): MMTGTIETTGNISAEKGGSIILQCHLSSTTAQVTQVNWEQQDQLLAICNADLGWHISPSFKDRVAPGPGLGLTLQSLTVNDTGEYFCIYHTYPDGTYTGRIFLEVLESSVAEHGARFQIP
assay comment: SPR Carterra, average
Give bare numbers, in s⁻¹.

Here are 7 binders together with their reported answers.
[[record]]
binder = "TIGIT-SC120 (Fc fusion, VHH-Fc fusion in assay) VHH: EVQLVESGGGLVQPGGSLRLSCAASGFTFSPSWMGWFRQAPGKEREWVASVLRGGYTWYADSVKGRFTISADNSKNTAYLQMNSLKPEDTAVYYCAKDGGWFDPWGQGTLVTVSS"
endpoint_label = "koff"
data_value = 0.00478

[[record]]
binder = "TIGIT-SC107 (Fc fusion, VHH-Fc fusion in assay) VHH: EVQLVESGGGLVQPGGSLRLSCAASGFAFSSDWMGWFRQAPGKEREGVAWIARYDGSTLYADSVKGRFTISADNSKNTAYLQMNSLKPEDTAVYYCAKDLDSSGRFFQHWGQGTLVTVSS"
endpoint_label = "koff"
data_value = 0.000148

[[record]]
binder = "TIGIT-SC46 (Fc fusion, VHH-Fc fusion in assay) VHH: EVQLVESGGGLVQPGGSLRLSCAASGRTFSNYVMGWFRQAPGKERELVASISSFGSTYYADSVKGRFTISADNSKNTAYLQMNSLKPEDTAVYYCARSGGFLSDWGQGTLVTVSS"
endpoint_label = "koff"
data_value = 0.00416

[[record]]
binder = "TIGIT-SC139 (Fc fusion, VHH-Fc fusion in assay) VHH: EVQLVESGGGLVQPGGSLRLSCAASGFTLENNMMGWFRQAPGKEREFVAAISRSGTLKAYADSVKGRFTISADNSKNTAYLRMNSLKPEDTAVYYCAGLTSGGAFSYYWGQGTLVTVSS"
endpoint_label = "koff"
data_value = 0.00778

[[record]]
binder = "TIGIT-SC152 (Fc fusion, VHH-Fc fusion in assay) VHH: EVQLVESGGGLVQPGGNLRLSCAASGSTFSKHHAMGWFRQAPGKEREFVAGIIRSGTLKAYADSVKGRFTISADNSKNTAYLQMNSLKPEDTAVYYCTRGRAARHNLWYFDLWGQGTLVTVSS"
endpoint_label = "koff"
data_value = 0.155

[[record]]
binder = "TIGIT-SC117 (Fc fusion, VHH-Fc fusion in assay) VHH: EVQLVESGGGLVQPGGSLRLSCAASGNTFSGGFMGWFRQAPGKEREWVASVLRGGYTWYADSVKGRFTISADNSKNTAYLQMNSLKPEDTAVYYCDAADYWGQGTLVTVSS"
endpoint_label = "koff"
data_value = 0.0012

[[record]]
binder = "TIGIT-SC61 (Fc fusion, VHH-Fc fusion in assay) VHH: EVQLVESGGGLVQPGGSLRLSCAASGNTFSGGFMGWFRQAPGKEREWVASVLRGGYTWYADSVKGRFTISADNSKNTAYLQMNSLKPEDTAVYYCTRGDTAMATFDYWGQGTLVTVSS"
endpoint_label = "koff"
data_value = 0.0037


Fill blank: measured koff of the binder TIGIT-SC197 (Fc fusion, VHH-Fc fusion in assay) VHH: EVQLVESGGGLVQPGGSLRLSCAASGFTFDRSWMGWFRQAPGKEREWVASVLRGGYTWYADSVKGRFTISADNSKNTAYLQMNSLKPEDTAVYYCAREGRTAGWFDPWGQGTLVTVSS is ____.
0.00156
